Would you kindly list TGI for each of these compounds?
test: Cytotoxicity against human NCI-ADR-RES cells after 48 hrs by sulforhodamine B assay; format: functional
State the answer as a number, implicitly in µM.

QUERY: Quick one: TGI for O=C1C=CC[C@H](/C=C/c2ccccc2)O1 ?
RESULT: 1.2

QUERY: Quick one: TGI for O=C1C=CCC(/C=C/c2ccccc2)O1 (racemic) ?
RESULT: 6.38

QUERY: Quick one: TGI for O=C1C=CC[C@@H](/C=C/c2ccccc2)O1 ?
RESULT: 11.5

QUERY: Quick one: TGI for COc1cccc2c1C(=O)c1c(O)c3c(c(O)c1C2=O)C[C@@](O)(C(=O)CO)C[C@@H]3O[C@H]1C[C@H](N)[C@H](O)[C@H](C)O1 ?
RESULT: 2.83
